Molecular target: PRMT5/MEP50 (Homo sapiens, UniProt O14744)
Sequence (O14744 2-637 limits assumed): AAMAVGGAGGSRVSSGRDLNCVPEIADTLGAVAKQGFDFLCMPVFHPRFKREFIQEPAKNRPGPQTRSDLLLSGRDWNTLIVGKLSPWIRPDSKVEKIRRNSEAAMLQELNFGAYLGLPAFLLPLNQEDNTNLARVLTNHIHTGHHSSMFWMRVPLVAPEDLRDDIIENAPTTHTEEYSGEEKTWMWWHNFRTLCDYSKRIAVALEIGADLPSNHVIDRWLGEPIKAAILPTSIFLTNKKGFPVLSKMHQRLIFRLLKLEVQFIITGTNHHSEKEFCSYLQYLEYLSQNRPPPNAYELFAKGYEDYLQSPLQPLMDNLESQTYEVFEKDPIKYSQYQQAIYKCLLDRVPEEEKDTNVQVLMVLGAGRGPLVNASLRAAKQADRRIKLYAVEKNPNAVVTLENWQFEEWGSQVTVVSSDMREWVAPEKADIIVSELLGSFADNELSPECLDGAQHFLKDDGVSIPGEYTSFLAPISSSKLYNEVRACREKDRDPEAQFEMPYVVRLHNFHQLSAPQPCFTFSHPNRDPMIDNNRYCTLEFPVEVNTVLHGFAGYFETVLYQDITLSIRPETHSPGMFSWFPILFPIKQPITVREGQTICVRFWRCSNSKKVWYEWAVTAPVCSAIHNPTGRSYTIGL
Sequence (Q9BQA1 2-342 partner limits assumed): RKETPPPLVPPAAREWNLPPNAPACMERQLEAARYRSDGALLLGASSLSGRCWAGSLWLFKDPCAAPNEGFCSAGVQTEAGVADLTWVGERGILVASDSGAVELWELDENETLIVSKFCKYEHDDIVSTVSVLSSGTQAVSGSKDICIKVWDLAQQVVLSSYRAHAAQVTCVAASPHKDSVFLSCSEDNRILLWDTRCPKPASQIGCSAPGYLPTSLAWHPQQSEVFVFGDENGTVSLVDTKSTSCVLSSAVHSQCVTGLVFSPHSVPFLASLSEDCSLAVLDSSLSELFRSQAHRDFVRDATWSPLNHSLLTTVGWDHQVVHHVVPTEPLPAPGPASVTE
Test: MTase-Glo methyl transferase assay, Method B (FL-Histone H2A, 1 µM MTA, 1 h pre-incubation)
Type: biochemical
Set-up: purchased Reaction Biology Corp RD-11-292
Details: read-out: PRMT5 MTase Glo Ki (nM, Meth. B)
Protocol: Method B: The PRMT5 inhibitory activity of test compounds was determined using the MTase-Glo™ assay (Promega), which monitors the product (S-adenosyl homocysteine or SAH) of methyltransferase reactions. The PRMT5 MTase-Glo assay was conducted in a 384-well white ProxiPlate (PerkinElmer) in a total volume of 16 µL. […] The light signal corresponding to the amount of SAH produced by the PRMT5 reaction was subsequently measured using an Envision multimode reader (PerkinElmer). […]
property.measured: Ki (nM)

Cc1cc2cc(C(=O)N(Cc3ccc(C(O)C(F)(F)F)cc3)Cc3ccc(C(F)(F)F)cn3)ccc2nc1N (stereo not shown) :: 7.14
Cc1cc2cc(C(=O)N(Cc3ccc(C(F)(F)F)cn3)CC(C)C(F)(F)F)ccc2nc1N (stereo not shown) :: 16.5
Cc1cc2cc(C(=O)N(Cc3ccc(O)cc3)Cc3ccc(C(F)(F)F)cn3)ccc2nc1N :: 1.81
Cc1cc2cc(C(=O)N(Cc3ccc(C(F)(F)F)cn3)C3CCCc4occc43)ccc2nc1N (stereo not shown) :: 2.9
Cc1csc(CN(Cc2ccc(C(F)(F)F)cn2)C(=O)c2ccc3nc(N)c(C)cc3c2)n1 :: 2.79
Cc1cc(N)nc2ccc(C(=O)N(Cc3ccc(C(F)(F)F)cn3)Cc3ccn(C)n3)cc12 :: 2.97
Cc1cc2cc(C(=O)N(Cc3cc(Br)ccn3)CC(C)C)ccc2nc1N :: 9.17
Cc1cc2cc(C(=O)N(Cc3ccc(CC(N)=O)cc3)Cc3ccc(C(F)(F)F)cn3)ccc2nc1N :: 1.76
Cc1cc2cc(C(=O)N(Cc3ccc(C(F)(F)F)cn3)CC3(C#N)CC3)ccc2nc1N :: 3.89
Cc1cc2cc(C(=O)N(Cc3ccc(N4CCCC4=O)cc3)Cc3ccc(C(F)(F)F)cn3)ccc2nc1N :: 5.93
Cc1cc2cc(C(=O)N(Cc3ccc(C(F)(F)F)cn3)C3CCc4nc(N)ncc4C3)ccc2nc1N (stereo not shown) :: 4.69
Cc1cc2cc(C(=O)N(Cc3ccc4[nH]ccc4c3)Cc3ccc(C(F)(F)F)cn3)ccc2nc1N :: 3.14
Cc1cc2cc(C(=O)N(Cc3ccc(C(F)(F)F)cn3)C3COc4ccccc43)ccc2nc1N (stereo not shown) :: 5.26
Cc1cc2c(nc1N)CCC(C(=O)N(Cc1ccc(C(F)(F)F)cn1)Cc1ccnc3[nH]ccc13)C2 (stereo not shown) :: 16
C#CCCN(Cc1ccc(C(F)(F)F)cn1)C(=O)c1ccc2nc(N)c(C)cc2c1 :: 4.33
Cc1cc2cc(C(=O)N(Cc3ccc(C(F)(F)F)cn3)Cc3c[nH]c4ccccc34)ccc2nc1N :: 4.44

Where do these numbers come from? They come from patent US20230159510A1.
